- target_or_system: CCR2 (Homo sapiens (Human))
- assay_summary: Calcium activity assayed on the FLIPR Tetra in HEK-Gqi5 cells stably expressing CCR2
- Assay type: cell-based
- condition: FLIPR Tetra calcium assay
assay_readout: CCR2 % ANTAGONISM (%)
Respond with the bare value in %.

>  <compound>
O=S(=O)(Nc1cc(Cl)ccc1SCc1cccnc1)c1ccc(Cl)c(C(F)(F)F)c1

>  <unit_of_measure>
%

>  <reported_result>
85

$$$$

Param item = CNC(=O)CS(=O)(=O)c1ccc(Cl)cc1NS(=O)(=O)c1ccc(Cl)c(C(F)(F)F)c1 ; retrieve measured CCR2 % ANTAGONISM.
96

For C[S+]([O-])c1ccc(Cl)cc1NS(=O)(=O)c1ccc(Br)cc1 (stereo not shown) then?
94

For Nc1cccc(C[S+]([O-])c2ccc(Cl)cc2NS(=O)(=O)c2cccc(Cl)c2)c1 (stereo not shown) then?
93

For Nc1cccc(CSc2ccc(Cl)cc2NS(=O)(=O)c2cc3ccccc3o2)n1 then?
94

For C[S+]([O-])c1ccc(Cl)cc1NS(=O)(=O)c1ccc(C(F)(F)F)c([N+](=O)[O-])c1 (stereo not shown) then?
97

For O=S(=O)(Nc1cc(Cl)ccc1SCc1cc[nH]n1)c1cc2ccccc2o1 then?
99

For COc1ccc([S+]([O-])Cc2cccc([N+](=O)[O-])c2)c(NS(=O)(=O)c2cc3ccccc3o2)c1 (stereo not shown) then?
84

For CN(C)C(=O)CCS(=O)(=O)c1ccc(Cl)cc1NS(=O)(=O)c1cc2ccccc2o1 then?
99

For COC(=O)CC[S+]([O-])c1ccc(Cl)cc1NS(=O)(=O)c1ccc(Cl)c(C(F)(F)F)c1 (stereo not shown) then?
82

For C[S+]([O-])c1ccc(Cl)cc1NS(=O)(=O)c1ccc(Cl)cc1 (stereo not shown) then?
91

For CSc1ccc(Cl)cc1NS(=O)(=O)c1cccc(Cl)c1F then?
94

For C[S+]([O-])c1ccc(Cl)cc1NS(=O)(=O)c1cc2cc(Cl)ccc2o1 (stereo not shown) then?
92

For CN(C)C(=O)CC[S+]([O-])c1ccc(Cl)cc1NS(=O)(=O)c1ccc(Cl)cc1F (stereo not shown) then?
99

For O=S(=O)(Cc1cccc[n+]1[O-])c1ccc(Cl)cc1NS(=O)(=O)c1cc2ccccc2o1 then?
102

For O=c1cc(CSc2ccc(Cl)cc2NS(=O)(=O)c2cc3ccccc3o2)[nH]c(=O)[nH]1 then?
98

For O=S(=O)(Nc1cc(Cl)ccc1SCCc1cn[nH]c1)c1cc2ccccc2o1 then?
91

For CC(C)(C)OC(=O)Nc1cccc(C[S+]([O-])c2ccc(Cl)cc2NS(=O)(=O)c2cc3ccccc3o2)n1 (stereo not shown) then?
82

For Cc1ccc(S(=O)(=O)Nc2cc(Cl)ccc2[S+](C)[O-])o1 (stereo not shown) then?
76

For NCCSc1ccc(Cl)cc1NS(=O)(=O)c1ccc(Cl)c(C(F)(F)F)c1 then?
97

For O=S(=O)(CCO)c1ccc(Cl)cc1NS(=O)(=O)c1ccc(Cl)c(C(F)(F)F)c1 then?
96

For O=S(=O)(Nc1cc(Cl)ccc1SCc1cccnc1F)c1cc2ccccc2o1 then?
76

----------
Item-by-item account of CCR2 % ANTAGONISM
- target_or_system: CCR2 (Homo sapiens (Human), UniProt P41597)
- Sequence (P41597 whole entry, species assumed): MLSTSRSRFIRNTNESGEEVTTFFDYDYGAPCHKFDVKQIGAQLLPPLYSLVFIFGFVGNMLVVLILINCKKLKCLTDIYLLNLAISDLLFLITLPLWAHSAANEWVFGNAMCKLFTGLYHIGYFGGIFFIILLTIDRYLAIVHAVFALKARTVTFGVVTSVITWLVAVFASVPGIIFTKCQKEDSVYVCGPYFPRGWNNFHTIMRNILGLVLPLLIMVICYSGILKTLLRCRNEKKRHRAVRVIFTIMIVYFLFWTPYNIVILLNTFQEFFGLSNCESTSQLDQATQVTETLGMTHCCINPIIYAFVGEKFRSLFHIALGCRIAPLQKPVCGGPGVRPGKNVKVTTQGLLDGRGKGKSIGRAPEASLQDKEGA
- assay_summary: Calcium activity assayed on the FLIPR Tetra in HEK-Gqi5 cells stably expressing CCR2
- Format: cell-based
- condition: FLIPR Tetra calcium assay
Respond with the bare value in %.

>  <compound>
O=S(=O)(Cc1ccc[n+]([O-])c1)c1ccc(Cl)cc1NS(=O)(=O)c1cc2ccccc2o1

>  <target_or_system>
CCR2 (Homo sapiens (Human), UniProt P41597)

>  <CCR2 % ANTAGONISM / %>
81

$$$$

Param item = CCCn1cnc(CS(=O)(=O)c2ccc(Cl)cc2NS(=O)(=O)c2cc3ccccc3o2)c1 ; retrieve measured CCR2 % ANTAGONISM.
98

For Nc1cccc(C[S+]([O-])c2ccc(Cl)cc2NS(=O)(=O)c2cc3ccccc3o2)n1 (stereo not drawn) then?
99

For O=S(=O)(Nc1cc(Cl)ccc1SCc1ncc[nH]1)c1cc2ccccc2o1 then?
93

For CN(C)C(=O)CCSc1ccc(Cl)cc1NS(=O)(=O)c1cc2ccccc2o1 then?
100

For Nc1cccc(CS(=O)(=O)c2ccc(Cl)cc2NS(=O)(=O)c2cc3ccccc3o2)n1 then?
102
